- Test system: Myo5 SH3 domain
- run_description: SPOT analysis of cellulose-bound peptides (WISE), Myo5 SH3 domain (Dataset S4)
- Assay type: binding, Saccharomyces cerevisiae
- condition_description: SPOT analysis of cellulose-bound 14-mer yeast proteome peptides, Myo5 SH3 domain; normalized value; mean where the peptide was synthesized more than once
observation_type: The normalized value in BLU units (BLU)
The answer is to be given in BLU; state only the numeric part.

Worked examples follow.
{"columns": ["polymer_sequence", "endpoint_unit", "The normalized value in BLU units"],
 "data": [
  ["HLDSFSPPFSPSTT", "BLU", 120.7],
  ["LLQSLRLPTTPTER", "BLU", 124.6],
  ["QLVTLISPYDPNFK", "BLU", 177.5],
  ["KAPYLVQPNVPEKH", "BLU", 130.6]
]}

**Q:** Specify measured The normalized value in BLU units for ALGIFFAPESPWWL .
**A:** 229.3

**Q:** Supply reported The normalized value in BLU units belonging to this sequence: RPPSHSAPYIPRSS
**A:** 47448.0

**Q:** For YLTEFSRPIPPTPS , write its The normalized value in BLU units.
**A:** 168.8

**Q:** Please list The normalized value in BLU units recorded for the sequence IEITHSEPAIPYRE
**A:** 114.3

**Q:** Return The normalized value in BLU units for the following sequence: LASPFHDPILPRRT
**A:** 288.3

Source listed as paper PMC314469.
